This collection of values is drawn from patent US20260242478A1.

TARGET: T1, 006 PSMA Fab (biotinylated (site not stated))
T1 construct: Biotinylated PSMA Fab captured on neutravidin coated plates in the panning ELISA; also called Anti-PSMA Fab
ASSAY REMARKS: clonal phage ELISA on biotinylated PSMA Fab captured on neutravidin plates, anti-M13-HRP detection;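 note: crude clonal phage supernatants added to wells preincubated with PSMA antigen or with blocking buffer only (no wash between), briefly incubated, then washed before detecting bound phage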
Where no end group is shown, it is not given here.
OBSERVATION TYPE: phage binding ELISA signal
Lab note: write the figure by itself, no unit.

>  <BINDER>
WINWCTPQWMCADL (cysteine pairing not given here; also: fused to pIII, displayed on bacteriophage, Clone of the Peptide-180 optimisation library, tested as clonal phage supernatant (peptide fused to pIII of the bacteriophage)) [Phage-2762]

>  <REPORTED>
0.662

$$$$

Q: Consider the binder shown here: AENWCTPRWMCEGI (Clone of the Peptide-180 optimisation library, tested as clonal phage supernatant (peptide fused to pIII of the bacteriophage)) [Phage-2768] What is its recorded phage binding ELISA signal?
Ans: 0.655

Q: Consider the binder shown here: MQKMCIPTWMCDGL (Clone of the Peptide-180 optimisation library, tested as clonal phage supernatant (peptide fused to pIII of the bacteriophage)) [Phage-2759] What is its recorded phage binding ELISA signal?
Ans: 0.673
